Biological target: T1, PSGL-1 endogenously expressed on HL-60 cells (UniProt Q14242 42-412)
T1 construct: whole, on cells
T1 sequence (looked up): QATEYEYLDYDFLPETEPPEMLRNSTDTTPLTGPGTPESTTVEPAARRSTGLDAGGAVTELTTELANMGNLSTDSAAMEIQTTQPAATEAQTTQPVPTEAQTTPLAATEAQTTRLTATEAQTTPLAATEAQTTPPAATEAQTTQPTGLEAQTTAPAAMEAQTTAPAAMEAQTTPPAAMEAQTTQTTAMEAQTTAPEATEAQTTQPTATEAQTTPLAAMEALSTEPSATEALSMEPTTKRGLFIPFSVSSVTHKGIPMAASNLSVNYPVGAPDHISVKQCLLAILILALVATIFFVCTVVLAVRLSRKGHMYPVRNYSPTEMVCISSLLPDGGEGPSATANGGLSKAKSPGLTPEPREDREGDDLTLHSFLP
Assay: flow cytometry on HL-60 cells

binder	unit	EC50
20I15.001 (antibody, IgG4, V domains shown, Humanised; also called 20115.001) VH: EVQLVESGGGLVQPGGSLRLSCAASGFTFTDYYMSWVRQAPGKGLEWLGFIRNKANGYTTEYSASVKGRFTISRDNSKNSLYLQMNSLKTEDTAVYYCARTYLRRGYFDVWGQGTLVTVSS VL: DIQLTQSPSTLSASVGDRVTITCRASKSVSTSGYSYMHWFQQKPGKAPKLLIYLASNLESGVPSRFSGSGSGTEFTLTISSLQPDDFATYYCQHSRELPLTFGQGTKLEIK	nM	0.5
20I15 (antibody, V domains shown, From mouse immunisation; only variable domains given; also called 20115) VH: EVKLVESGGGLVQPGGSLSLSCAASGFTFTDYYMSWVRQPPGKALEWLGFIRNKANGYTTEYSASVKGRFTISRDNSQSILYLQMNALRAEDSATYYCARTYLRRGYFDVWGTGTTVTVSS VL: DIVLTQSPASLAVSLGQRATISCRASKSVSTSGYSYMHWFQQKPGQPPKLLIYLASNLESGVPARFSGSGSGTDFTLNIHPVEEEDAATYYCQHSRELPLTFGAGTKLELK	nM	1.4
19L04.006 (antibody, IgG4, V domains shown, Humanised) VH: QIQLVQSGSELKKPGASVKVSCKASGYTFTTYGMSWVRQAPGQGLKWMGWINTYSGVPTYADDFKGRFVFSLDTSVSTAYLQISSLKAEDTAVYFCARHYYGSHYFDYWGQGTLVTVSS VL: DIVMTQSPDSLAVSLGERATLRCKSSQSLLSSSNQKNYLAWYQQKPGQPPKLLVYFASTRESGVPVRFSGSGSGTDFTLTISSLQAEDVAVYFCQQHYFSPLTFGQGTKLEIK	nM	3.5
